tested on: rhinovirus B6; assay: Tested for antirhinoviral activity against the rhinovirus serotype 6; format: functional; conditions: Rhinovirus B
attributeMeasured: MIC (µM)

>>> observedmeasurement("C=Cc1cc(C2=NCCO2)ccc1OCCCCCc1cc(C)no1")
2.4
>>> observedmeasurement("COc1cc(C2=NCCO2)ccc1OCCCCCc1cc(C)no1")
1
>>> observedmeasurement("Cc1cc(CCCCCOc2ccc(C3=NCCO3)cc2C)on1")
0.6
>>> observedmeasurement("Cc1cc(CCCCCOc2ccc(C3=NCCO3)cc2Cl)on1")
0.6
>>> observedmeasurement("C=CCc1cc(C2=NCCO2)ccc1OCCCCCc1cc(C)no1")
1.7
>>> observedmeasurement("Cc1cc(CCCCCOc2ccc(C3=NCCO3)cc2C(F)(F)F)on1")
1.8
>>> observedmeasurement("CCc1cc(C2=NCCO2)ccc1OCCCCCc1cc(C)no1")
3.2
>>> observedmeasurement("Cc1cc(CCCCCOc2ccc(C3=NCCO3)cc2C(F)F)on1")
0.3
>>> observedmeasurement("Cc1cc(CCCCCOc2ccc(C3=NCCO3)cc2)on1")
0.06

1 = Cc1cc(CCCCCOc2ccc(C3=NCCO3)cc2Br)on1
2 = CC(=O)c1cc(C2=NCCO2)ccc1OCCCCCc1cc(C)no1
For this pair, 1 and 2 , which shows a numerically higher MIC? Use the label to indicate which entry you chose. 2
(2: 5.1 µM, 1: 1.1 µM)
